Target: T1, PUF4 RNA-binding domain (Saccharomyces cerevisiae, UniProt P25339 537-888)
T1 sequence: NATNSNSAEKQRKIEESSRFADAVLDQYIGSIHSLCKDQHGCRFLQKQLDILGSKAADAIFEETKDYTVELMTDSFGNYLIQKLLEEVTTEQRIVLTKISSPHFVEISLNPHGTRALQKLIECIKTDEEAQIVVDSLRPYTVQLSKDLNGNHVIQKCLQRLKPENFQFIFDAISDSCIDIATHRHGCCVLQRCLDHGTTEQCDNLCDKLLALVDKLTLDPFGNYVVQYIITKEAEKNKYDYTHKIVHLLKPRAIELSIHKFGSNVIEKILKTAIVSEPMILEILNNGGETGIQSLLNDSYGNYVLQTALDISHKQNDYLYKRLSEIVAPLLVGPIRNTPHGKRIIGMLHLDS
Test: Mg; RNA-MaP; 20 mM Na-HEPES pH 7.4, 30 mM KOAc, 0.75 mM MgCl2, 0.1% Tween-20, 5% glycerol, 0.1 mg/mL BSA, 2 mM DTT; 25 C; 0.0125-409.6 nM protein
Details: tags: N-His6-TEV cleaved; C-SNAP kept, Cy3B-labelled; label: tethered on chip by stalled RNA polymerase
Readout Name: Kd (nM)
// return numeric value only (unit: nM, not printed)

Known results for binders:
Id_ii_S2_P3E.2_K3.1_C3.2_[C-2T]_H3.1_A3.1_F3.1_T3.2 (ssRNA) RNA: UUUGAUUAAUAUGAUAUCGUUCUUUCUUUUGUAUAUAUAUUCUUUCUCGAUAUCAUAUUAAUCUUU :: 1.24
UCUCUUUGUAUACCGUUCUCUU (ssRNA) [Ic_S1_P5E.1_K5.1_C5.1_H5.1_A5.1_[T6A]_[A7C]_F5.1_[T8C]_[T9G]_[A10T]_T5.1] :: 334

For reference, reported Kd for UCUCUUUUUGUAUUAUUAUCUCUU (ssRNA) [Ie_S1_P5E.1_K5.1_C5.1_H5.1_[+1TT]_A5.1_F5.1_T5.1] stands at 7.17

For this binder ( Id_ii_S2_P4E.2_K4.1_C4.2_[C-2G]_H4.1_A4.1_F4.1_T4.2_[G10C]_[T11C] (ssRNA) RNA: UUUGAUUAAUAUGAUAUCGUUCUUUCUGUUGUAUAUUACCUUCUUUCUCGAUAUCAUAUUAAUCUUU ), measured Kd is 1.8

Entry under test: Id_iii_S4_P4E.8_K4.4_C4.3_[C-2T]_H4.1_A4.2_F4.1_T4.2 (ssRNA) RNA: UUUGACAACUGAUCGUUCUUUCUUUUUGUAUUUUAGUUUCUUUCUCGAUCAGUUGUCUUU . Its Kd was 0.755

Short answer for Ib_S4_P3E.1_K3.1_C3.1_H3.1_A3.1_F3.1_[T7C]_[A8G]_T3.1 (ssRNA) RNA: UUUGACAACUGAUCGUUCUUUCUUGUAUACGUUCUUUCUCGAUCAGUUGUCUUU : Kd was 60.4

Documented Kd of Ie_S4_P3E.2_K3.1_C3.2_H3.1_[+1CCTC]_A3.1_F3.1_T3.2 (ssRNA) RNA: UUUGACAACUGAUCGUUCUUUCUCUUCCUCGUAUAUAUAUUCUUUCUCGAUCAGUUGUCUUU : 64
